# Tested on: Yap1 mRNA
# Method summary: Antisense inhibition of human Yap1 in SNU-449 cells by modified oligonucleotides, single dose (Example 5, RTS36584)
# Assay type: cell-based
# Conditions: Table 49; Yap1 mRNA level relative to untreated control; modified oligonucleotides targeting SEQ ID NO.: 1 and 2
Strand notation (5' to 3'): a small letter for the sugar, then the base; units joined by * are phosphorothioate-linked, units joined directly phosphodiester-linked; [ ] holds rarer units or linkages, { } end groups; capitals alone tell only the bases. e = 2'-O-(2-methoxyethyl) (MOE); k = constrained ethyl (cEt); [5mC] = 5-methylcytosine; d = 2'-deoxy (DNA)
Reported YAP1 (% UT) is given for each of the following substances.
Form entry: value (% UT) — number only.

- Substance: "1198354 (kA*kA*kG*dT*dG*dT*dA*dT*dG*dT*d[5mC]*dA*kG*eA*kA*eG; antisense) [Compound 1198354]"
  YAP1 (% UT): 6

Identify the measured YAP1 (% UT) of 1198352 (kT*kG*kT*dA*dT*dG*dT*d[5mC]*dA*dG*dA*dA*kG*eA*kG*eT; antisense) [Compound 1198352] for Yap1 mRNA. 7

# query: YAP1 (% UT) | item 1198551 (antisense kA*kG*kT*dA*dT*dG*dT*dG*dG*d[5mC]*dA*dA*kT*kA*kA*eT) [Compound 1198551] | system: Yap1 mRNA 34

YAP1 (% UT) of 1198349 (kA*kT*kG*dT*dA*dA*dT*dA*dT*dT*dG*d[5mC]*kA*eA*kT*e[5mC]) [Compound 1198349] on Yap1 mRNA? 85
